All figures here come from ChEMBL document CHEMBL1201862.

# Test system: COLO 205
# experiment: NCI tumour cell line growth inhibition, 48 h
Active and inactive are the calls of the source. Rule as the data show it: active = GI50 up to about 1.1 µM and inactive = higher.
GI50 by entry:

See these solved cases before continuing.
molecule: CCOC(=O)/C=C(/C(=O)OCC)n1c(=O)c(C)cn(C2CC(N=[N+]=[N-])C(CO)O2)c1=O (stereo not given)
GI50: 14.5 µM (inactive)
//
molecule: CC1(C)CCC(C)(C)c2c1ccc(O)c2Cc1c(O)ccc2c1C(C)(C)CCC2(C)C
GI50: 2.13 µM (inactive)
//
molecule: CN1CCCCC1CCN1c2ccccc2Sc2ccc([S+](C)[O-])cc21 (stereo not given)
GI50: > 100 µM (inactive)
//
molecule: COc1ccc(/C=C2\C(=O)N(C(=O)c3ccc(NC(C)=O)cc3)N=C2C)cc1OC
GI50: > 100 µM (inactive)

Next molecule, please.
Measured GI50, CC(=O)N1c2ccccc2C(C)C1c1[nH]c2ccccc2c1C (stereo not given) : 13.5 µM (inactive)

---

# System: RXF 393
# experiment: NCI tumour cell line growth inhibition, 48 h
Calls of active or inactive are those of the source. No stated cut-off is given here; in the data, active = GI50 up to about 1.1 µM and inactive = higher.
property: GI50

molecule: CC(=O)C(O)N1C(=O)C=CC1=O (stereo not drawn)
GI50: 2.13 µM (inactive)

Measured GI50, O=C(O)[C@@H]1C2CC([C@@H]1C(=O)O)[C@H](N1C(=O)CCC1=O)[C@@H]2Br (stereo partly drawn) : > 100 µM (inactive)

Measured GI50, CC(=O)Nc1ccc(C(=O)NN2C(=O)C(Cl)C2c2ccc(O)cc2)cc1 (stereo not drawn) : 61.7 µM (inactive)

Measured GI50, COC1C(OC(C)=O)CC(=O)OC(C)C/C=C/C=C\C(O)C(C)CC(CC=O)C1OC1OC(C)C(OC2CC(C)(O)C(OC(=O)CC(C)C)C(C)O2)C(N(C)C)C1O (stereo not drawn) : 82 µM (inactive)

Measured GI50, O=c1[nH]c2ccc(Cl)cc2c2oc(-c3ccccc3)nc12 : 14.1 µM (inactive)

---

GI50 by entry:
# System: NCI-H460
# experiment: NCI tumour cell line growth inhibition, 48 h
The source made the active and inactive calls. Cut-off read from the data, not from the text of the source: active = GI50 up to about 1.1 µM and inactive = higher.

See these solved cases before continuing.
compound: COc1ccc(-n2cnc3c(NC(C)(C)C(=O)O)ncnc32)cc1
property: GI50
assay.value: > 100 µM (inactive)
//
compound: CC1(C)CC(=O)c2c(oc3cc(O)c(O)cc23)C1
property: GI50
assay.value: 32 µM (inactive)
//
compound: Cc1ccc(NC(=O)CC(=O)N2N=C(c3ccccc3)C(/N=N/c3ccc(S(=O)(=O)CCOS(=O)(=O)O)cc3)C2=O)cc1 (stereo unspecified)
property: GI50
assay.value: > 100 µM (inactive)
//
compound: CC1(C)COC(/C=C/C2=NC(C)(C)CO2)=N1
property: GI50
assay.value: 67 µM (inactive)

Measured GI50, CC(C)c1ccccc1NC(=O)/C(Cl)=C1/Sc2ccccc2NC1=O : 34.5 µM (inactive)

Measured GI50, C=CCCCCCCCCC(=O)NS(=O)(=O)c1ccccc1 : > 100 µM (inactive)

---

# Tested on: NCI/ADR-RES
# experiment: NCI tumour cell line growth inhibition, 48 h
Calls of active or inactive are those of the source. Cut-off read from the data, not from the text of the source: active = GI50 up to about 1.1 µM and inactive = higher.
property: GI50

compound: N#CCCN(CCC#N)c1ccc(/C=C2\N=C(c3ccccc3)N(c3ccc(Cl)cc3)C2=O)cc1
GI50: > 100 µM (inactive)

Measured GI50, Cc1c(N=C(S)Nc2ccc(Cl)cc2)c(=O)n(-c2ccccc2)n1C : > 100 µM (inactive)

Measured GI50, CC(C)(C)n1c(=O)n(-c2ccccc2)n(C(C)(C)C)c1=O : > 100 µM (inactive)

Measured GI50, C[C@H](CCC(=O)O[C@@H]1CC[C@@]2(C)C(CC[C@H]3[C@@H]4CC[C@H]([C@H](C)CCc5nc6ccccc6[nH]5)[C@@]4(C)CC[C@@H]32)C1)[C@H]1CC[C@H]2[C@@H]3CCC4C[C@H](O)CC[C@]4(C)[C@H]3CC[C@]12C (stereo partly drawn) : > 100 µM (inactive)

Measured GI50, COC(=O)c1ccccc1CC(Cc1ccc2c(c1)CCC2)C(=O)OC (stereo not drawn) : > 100 µM (inactive)

Measured GI50, COc1c2occc2c(OC)c2c(=O)c(S(=O)(=O)NC(=O)Nc3ccc(Cl)cc3)coc12 : > 10 µM (inactive)

Measured GI50, O=[N+]([O-])c1cc(-c2nc(-c3ccccc3)c(-c3ccccc3)[nH]2)c(O)c([N+](=O)[O-])c1 : 19.1 µM (inactive)

Measured GI50, COc1cc2c(NCCCCCO)ncnc2c(OC)c1OC : > 100 µM (inactive)
